Molecular target: Fibroblast growth factor receptor 1 (Homo sapiens); note: in the data inactive means no Kd found up to 30 µM
Sequence (P11362 whole entry): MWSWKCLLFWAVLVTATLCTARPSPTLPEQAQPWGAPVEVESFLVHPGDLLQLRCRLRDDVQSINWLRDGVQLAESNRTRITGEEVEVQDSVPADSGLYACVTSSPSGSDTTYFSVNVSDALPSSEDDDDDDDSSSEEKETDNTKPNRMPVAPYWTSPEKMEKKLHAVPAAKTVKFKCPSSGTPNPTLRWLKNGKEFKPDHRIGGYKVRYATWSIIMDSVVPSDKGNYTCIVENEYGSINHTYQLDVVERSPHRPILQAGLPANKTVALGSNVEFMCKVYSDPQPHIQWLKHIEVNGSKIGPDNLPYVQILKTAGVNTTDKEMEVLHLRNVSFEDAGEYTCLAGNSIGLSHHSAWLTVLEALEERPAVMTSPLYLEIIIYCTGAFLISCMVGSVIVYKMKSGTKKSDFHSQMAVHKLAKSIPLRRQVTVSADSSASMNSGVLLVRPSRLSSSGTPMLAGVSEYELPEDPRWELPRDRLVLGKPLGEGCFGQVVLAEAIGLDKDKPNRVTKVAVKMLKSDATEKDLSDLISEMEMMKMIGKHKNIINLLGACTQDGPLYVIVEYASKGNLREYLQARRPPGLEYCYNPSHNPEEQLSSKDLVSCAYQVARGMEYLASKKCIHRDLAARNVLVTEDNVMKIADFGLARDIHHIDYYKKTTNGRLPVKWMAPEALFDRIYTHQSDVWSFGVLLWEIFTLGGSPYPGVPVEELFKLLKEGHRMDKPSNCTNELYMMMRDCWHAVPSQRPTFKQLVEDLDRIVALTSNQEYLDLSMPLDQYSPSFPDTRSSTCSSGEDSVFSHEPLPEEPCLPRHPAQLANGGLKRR
The source made the active and inactive calls.
Possible outcomes: YES = active, NO = inactive

MOLECULE	CATEGORY
COc1cc2nccc(Oc3ccc(NC(=O)NC4CC4)c(Cl)c3)c2cc1C(N)=O [LENVATINIB]	NO
Cc1cc(-c2cc(O)ccc2Cl)cc2nnc(Nc3ccc(OCCN4CCCC4)cc3)nc12	NO
Cc1cc2c(F)c(Oc3ncnn4cc(OC[C@@H](C)OC(=O)[C@H](C)N)c(C)c34)ccc2[nH]1 [BRIVANIB ALANINATE]	YES
C1=C/COCc2cc(ccc2OCCN2CCCC2)Nc2nccc(n2)-c2cccc(c2)COC/1 [PACRITINIB]	NO

###

Kd values recorded for Tyrosine-protein kinase SYK (Homo sapiens, UniProt P43405)
The source made the active and inactive calls.

QUERY_SMILES	Kd
CCN1CCN(Cc2ccc(-c3cc4c(N[C@H](C)c5ccccc5)ncnc4[nH]3)cc2)CC1	> 30 µM (inactive)
CCc1cnn2c(NCc3ccc[n+]([O-])c3)cc(N3CCCC[C@H]3CCO)nc12	> 30 µM (inactive)
CN1CC[C@@H](c2c(O)cc(O)c3c(=O)cc(-c4ccccc4Cl)oc23)[C@@H]1CO	> 30 µM (inactive)
